Tested on: Candida albicans
assay_procedure: Antimicrobial activity against Candida albicans by two-fold serial dilution technique
Type: functional
quantity_name: MIC (µg/mL)
Answer with a number only, understood to be in µg/mL.

Note to self: MIC of Cc1cc2ncn(CC(O)COc3ccc4c(C)cc(=O)oc4c3)c2cc1C (stereo not drawn) with Candida albicans was 16

Note to self: MIC of Cc1cc(=O)oc2cc(OCC(O)Cn3nnc4ccccc43)ccc12 (stereo not drawn) with Candida albicans was 4

###

assay_procedure: n-Octanol-water partition coefficient, log P of the compound after 24 hrs by shake flask method
Type: physicochemical
quantity_name: logP at 24 h
Write the number on its own, no unit after it.

Answered cases to consult:
[[record]]
compound = "Cc1cc2ncn(CC(O)COc3ccc4c(C)cc(=O)oc4c3)c2cc1C (stereo not given)"
measured_number = 0.61

[[record]]
compound = "Cc1cc(=O)oc2cc(OCC(O)CSc3nc4ccccc4[nH]3)c(OCC(O)CSc3nc4ccccc4[nH]3)cc12 (stereo not given)"
measured_number = 0.58

[[record]]
compound = "Cc1cc(=O)oc2cc(OCC(O)Cn3cncn3)c(OCC(O)Cn3cncn3)cc12 (stereo not given)"
measured_number = 0.65

[[record]]
compound = "Cc1cc2ncn(CC(O)COc3cc4oc(=O)cc(C)c4cc3OCC(O)Cn3cnc4cc(C)c(C)cc43)c2cc1C (stereo not given)"
measured_number = 0.61

[[record]]
compound = "Cc1cc(=O)oc2cc(OCC(O)Cn3nnc4ccccc43)ccc12 (stereo not given)"
measured_number = 0.6


The recorded logP at 24 h for Cc1cc(=O)oc2cc(OCC(O)Cn3cnc4ccccc43)c(OCC(O)Cn3cnc4ccccc43)cc12 (stereo not given) is 0.49

The recorded logP at 24 h for Cc1cc(=O)oc2cc(OCC(O)Cn3nnc4ccccc43)c(OCC(O)Cn3nnc4ccccc43)cc12 (stereo not given) is 0.48

The recorded logP at 24 h for Cc1cc(=O)oc2cc(OCC(O)CSc3nc4ccccc4[nH]3)ccc12 (stereo not given) is 0.49

The recorded logP at 24 h for Cc1cc(=O)oc2cc(OCC(O)Cn3cncn3)ccc12 (stereo not given) is 0.45

The recorded logP at 24 h for Cc1cc(=O)oc2cc(OCC(O)Cn3cnc4ccccc43)ccc12 (stereo not given) is 0.55

###

Test system: Shigella dysenteriae
assay_procedure: Antimicrobial activity against Shigella dysenteriae by two-fold serial dilution technique
Format: functional
quantity_name: MIC (µg/mL)
Answer with a number only, understood to be in µg/mL.

Answered cases to consult:
[[record]]
compound = "Cc1cc(=O)oc2cc(OCC(O)Cn3cnc4ccccc43)ccc12 (stereo not given)"
measured_number = 512

[[record]]
compound = "Cc1cc(=O)oc2cc(OCC3CO3)cc(OCC3CO3)c12 (stereo not given)"
measured_number = 4

[[record]]
compound = "Cc1cc(=O)oc2cc(OCC3CO3)ccc12 (stereo not given)"
measured_number = 4

[[record]]
compound = "Cc1cc(=O)oc2cc(OCC(O)Cn3nnc4ccccc43)ccc12 (stereo not given)"
measured_number = 64

[[record]]
compound = "CCn1cc(C(=O)O)c(=O)c2cc(F)c(N3CCNCC3)cc21"
measured_number = 4

[[record]]
compound = "Cc1cc(=O)oc2cc(OCC(O)CSc3nc4ccccc4[nH]3)c(OCC(O)CSc3nc4ccccc4[nH]3)cc12 (stereo not given)"
measured_number = 32

[[record]]
compound = "Cc1cc(=O)oc2cc(OCC(O)Cn3cncn3)ccc12 (stereo not given)"
measured_number = 32

[[record]]
compound = "Cc1cc(=O)oc2cc(OCC(O)Cn3cncn3)c(OCC(O)Cn3cncn3)cc12 (stereo not given)"
measured_number = 16


Note to self: MIC of Cc1cc(=O)oc2cc(OCC(O)CSc3nc4ccccc4[nH]3)ccc12 (stereo not given) with Shigella dysenteriae was 64

Note to self: MIC of Cc1cc2ncn(CC(O)COc3cc4oc(=O)cc(C)c4cc3OCC(O)Cn3cnc4cc(C)c(C)cc43)c2cc1C (stereo not given) with Shigella dysenteriae was 16

###

Below, each entry is listed alongside its reported MIC.
System: Aspergillus flavus
assay_procedure: Antimicrobial activity against Aspergillus flavus by two-fold serial dilution technique
Type: functional
Answer with a number only, understood to be in µg/mL.

The recorded MIC for Cc1cc(=O)oc2cc(OCC(O)CSc3nc4ccccc4[nH]3)c(OCC(O)CSc3nc4ccccc4[nH]3)cc12 (centres undefined) is 64

The recorded MIC for Cc1cc(=O)oc2cc(OCC(O)Cn3nnc4ccccc43)c(OCC(O)Cn3nnc4ccccc43)cc12 (centres undefined) is 256

The recorded MIC for Cc1cc(=O)oc2cc(OCC(O)CSc3nc4ccccc4[nH]3)ccc12 (centres undefined) is 16

The recorded MIC for Cc1cc2ncn(CC(O)COc3ccc4c(C)cc(=O)oc4c3)c2cc1C (centres undefined) is 128

The recorded MIC for Cc1cc2ncn(CC(O)COc3cc4oc(=O)cc(C)c4cc3OCC(O)Cn3cnc4cc(C)c(C)cc43)c2cc1C (centres undefined) is 64

The recorded MIC for Cc1cc(=O)oc2cc(OCC3CO3)ccc12 (centres undefined) is 1

The recorded MIC for Cc1cc(=O)oc2cc(OCC(O)Cn3cnc4ccccc43)c(OCC(O)Cn3cnc4ccccc43)cc12 (centres undefined) is 512

The recorded MIC for Cc1cc(=O)oc2cc(OCC(O)Cn3cncn3)c(OCC(O)Cn3cncn3)cc12 (centres undefined) is 32

###

Tested on: Escherichia coli
assay_procedure: Antimicrobial activity against Escherichia coli JM109 by two-fold serial dilution technique
Type: functional
Below, each entry is listed alongside its reported log10 of MIC.
Record value = log10 of MIC given in µg/mL.

Answered cases to consult:
[[record]]
compound = "Cc1cc(=O)oc2cc(OCC(O)CSc3nc4ccccc4[nH]3)c(OCC(O)CSc3nc4ccccc4[nH]3)cc12 (stereo not given)"
measured_number = -0.30

[[record]]
compound = "Cc1cc(=O)oc2cc(OCC(O)Cn3nnc4ccccc43)c(OCC(O)Cn3nnc4ccccc43)cc12 (stereo not given)"
measured_number = 1.51

[[record]]
compound = "Cc1cc(=O)oc2cc(OCC(O)CSc3nc4ccccc4[nH]3)ccc12 (stereo not given)"
measured_number = -0.30

[[record]]
compound = "CCn1cc(C(=O)O)c(=O)c2cc(F)c(N3CCNCC3)cc21"
measured_number = 1.20


The recorded log10 of MIC for Cc1cc(=O)oc2cc(OCC(O)Cn3cncn3)ccc12 (stereo not given) is 1.81

The recorded log10 of MIC for Cc1cc(=O)oc2cc(OCC(O)Cn3cncn3)c(OCC(O)Cn3cncn3)cc12 (stereo not given) is 0.00

The recorded log10 of MIC for Cc1cc2ncn(CC(O)COc3ccc4c(C)cc(=O)oc4c3)c2cc1C (stereo not given) is 2.11

The recorded log10 of MIC for Cc1cc(=O)oc2cc(OCC(O)Cn3cnc4ccccc43)ccc12 (stereo not given) is 2.11

The recorded log10 of MIC for Cc1cc2ncn(CC(O)COc3cc4oc(=O)cc(C)c4cc3OCC(O)Cn3cnc4cc(C)c(C)cc43)c2cc1C (stereo not given) is 1.51

###

Test system: Candida albicans
assay_procedure: Antimicrobial activity against Candida albicans by two-fold serial dilution technique
Assay type: functional
Below, each entry is listed alongside its reported log10 of MIC.
Record value = log10 of MIC given in µg/mL.

Answered cases to consult:
[[record]]
compound = "Cc1cc(=O)oc2cc(OCC(O)CSc3nc4ccccc4[nH]3)c(OCC(O)CSc3nc4ccccc4[nH]3)cc12 (stereo not given)"
measured_number = 0.90

[[record]]
compound = "Cc1cc(=O)oc2cc(OCC(O)Cn3cncn3)c(OCC(O)Cn3cncn3)cc12 (stereo not given)"
measured_number = 0.00

[[record]]
compound = "Cc1cc(=O)oc2cc(OCC3CO3)cc(OCC3CO3)c12 (stereo not given)"
measured_number = 0.90

[[record]]
compound = "Cc1cc(=O)oc2cc(OCC3CO3)ccc12 (stereo not given)"
measured_number = 1.20

[[record]]
compound = "OC(Cn1cncn1)(Cn1cncn1)c1ccc(F)cc1F [FLUCONAZOLE]"
measured_number = 0.00


Then there is this compound:
The recorded log10 of MIC for Cc1cc(=O)oc2cc(OCC(O)CSc3nc4ccccc4[nH]3)ccc12 (stereo not given) is 1.51

###

Tested on: Aspergillus flavus
assay_procedure: Antimicrobial activity against Aspergillus flavus by two-fold serial dilution technique
Type: functional
Below, each entry is listed alongside its reported MIC.
Answer with a number only, understood to be in µg/mL.

Answered cases to consult:
[[record]]
compound = "Cc1cc(=O)oc2cc(OCC3CO3)cc(OCC3CO3)c12 (centres undefined)"
quantity_name = "MIC"
measured_number = 16

[[record]]
compound = "Cc1cc(=O)oc2cc(OCC(O)Cn3nnc4ccccc43)ccc12 (centres undefined)"
quantity_name = "MIC"
measured_number = 256

[[record]]
compound = "Cc1cc(=O)oc2cc(OCC(O)Cn3cncn3)ccc12 (centres undefined)"
quantity_name = "MIC"
measured_number = 6


The recorded MIC for OC(Cn1cncn1)(Cn1cncn1)c1ccc(F)cc1F [FLUCONAZOLE] is 256
